Molecular target: beta-catenin (Homo sapiens)
Construct: made in house; host or cells: E. coli BL21 (DE3) pLysS
Sequence (P35222 134-665): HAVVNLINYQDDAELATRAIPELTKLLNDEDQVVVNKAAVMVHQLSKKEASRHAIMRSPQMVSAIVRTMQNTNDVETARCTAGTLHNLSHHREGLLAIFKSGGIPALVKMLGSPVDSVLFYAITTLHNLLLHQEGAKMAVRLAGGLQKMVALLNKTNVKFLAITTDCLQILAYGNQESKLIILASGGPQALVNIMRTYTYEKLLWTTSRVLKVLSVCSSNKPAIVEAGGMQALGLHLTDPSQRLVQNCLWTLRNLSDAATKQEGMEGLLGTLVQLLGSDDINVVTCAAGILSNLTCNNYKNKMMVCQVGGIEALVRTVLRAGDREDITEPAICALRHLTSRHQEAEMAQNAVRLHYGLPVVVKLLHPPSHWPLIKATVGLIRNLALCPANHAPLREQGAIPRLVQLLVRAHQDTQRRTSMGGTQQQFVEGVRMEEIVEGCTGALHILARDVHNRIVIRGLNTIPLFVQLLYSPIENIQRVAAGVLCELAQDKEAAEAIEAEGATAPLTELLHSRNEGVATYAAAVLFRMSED
Assay: Phage Library Screening with NGS, beta-catenin
Format: binding
Conditions: BLANK, fourth column
Ends that are not written are not given here.
Measurement Name: Target Concentration BLANK (phage screen NGS readout)

Please review the following examples before continuing.
sequence=DPAIFNCTMAALECTQI reported_value=0
sequence=DPAEVDCIMAAHICVWD reported_value=0
sequence=DPAQSDCDWAAEHCNLI reported_value=0
sequence=DPAILDCQIAAIECEFA reported_value=1
sequence=DPAMSQCNWAAVHCQLL reported_value=0

Request: State its Target Concentration BLANK (phage screen NGS readout) on beta-catenin (Homo sapiens): DPAALSCYQAAFHCQYY
Response: 0

Request: State its Target Concentration BLANK (phage screen NGS readout) on beta-catenin (Homo sapiens): DPATIRCYEAAFMCQYW
Response: 0

Request: State its Target Concentration BLANK (phage screen NGS readout) on beta-catenin (Homo sapiens): DPAEFYCEMAAVHCELL
Response: 0

Request: State its Target Concentration BLANK (phage screen NGS readout) on beta-catenin (Homo sapiens): DPAQNICEWAALHCDLI
Response: 0

Request: State its Target Concentration BLANK (phage screen NGS readout) on beta-catenin (Homo sapiens): DPADYECVIAAQVCQHF (not fully specified; cysteine pairing not given here)
Response: 0

Request: State its Target Concentration BLANK (phage screen NGS readout) on beta-catenin (Homo sapiens): DPAQQDCTLAAHVCRVF
Response: 0

Request: State its Target Concentration BLANK (phage screen NGS readout) on beta-catenin (Homo sapiens): DPAWILCDWAAMHCELV
Response: 0

Request: State its Target Concentration BLANK (phage screen NGS readout) on beta-catenin (Homo sapiens): DPAMVTCYEAAYVCQYF
Response: 0

Request: State its Target Concentration BLANK (phage screen NGS readout) on beta-catenin (Homo sapiens): DPAVLQCYEAAFICEYM
Response: 0

Request: State its Target Concentration BLANK (phage screen NGS readout) on beta-catenin (Homo sapiens): DPAFLTCHIAAWACSEQ
Response: 0

Request: State its Target Concentration BLANK (phage screen NGS readout) on beta-catenin (Homo sapiens): DPAILECHMAAFECYIE
Response: 0

====

Target: beta-catenin (Homo sapiens, UniProt P35222)
Construct: made in house; host or cells: E. coli BL21 (DE3) pLysS
Sequence (P35222 134-665): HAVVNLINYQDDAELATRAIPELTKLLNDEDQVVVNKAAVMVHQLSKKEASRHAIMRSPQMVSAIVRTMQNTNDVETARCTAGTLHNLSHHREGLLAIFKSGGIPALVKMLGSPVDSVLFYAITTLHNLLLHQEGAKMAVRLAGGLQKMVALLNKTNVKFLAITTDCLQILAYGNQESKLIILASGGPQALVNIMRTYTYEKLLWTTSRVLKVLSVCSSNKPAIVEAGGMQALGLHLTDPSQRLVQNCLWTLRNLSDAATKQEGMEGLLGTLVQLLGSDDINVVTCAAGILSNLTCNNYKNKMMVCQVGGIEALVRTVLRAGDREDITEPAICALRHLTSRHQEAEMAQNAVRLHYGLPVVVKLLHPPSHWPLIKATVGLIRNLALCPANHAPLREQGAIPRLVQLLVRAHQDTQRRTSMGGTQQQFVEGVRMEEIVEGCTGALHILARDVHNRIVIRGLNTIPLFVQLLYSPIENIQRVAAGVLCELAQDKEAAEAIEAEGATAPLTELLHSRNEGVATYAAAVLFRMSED
Assay: Phage Library Screening with NGS, beta-catenin
Type: binding
Details: BLANK, third column
Measurement Name: Target Concentration BLANK (phage screen NGS readout)
Hey, just send me the number, nothing else.

Please review the following examples before continuing.
sequence=DPAWILCDWAAMHCELV reported_value=0
sequence=DPAVIACYDAAFVCEYF reported_value=0
sequence=DPAEWQCEHAALLCEQQ reported_value=0
sequence=DPAQFYCEHAALLCRWE reported_value=0
sequence=DPAIMACYEAAYLCDYI reported_value=0

Request: What does the record list as Target Concentration BLANK (phage screen NGS readout) for DPAILDCQLAAMDCSTW ?
Response: 0

Request: What does the record list as Target Concentration BLANK (phage screen NGS readout) for DPAIMACYQAAFWCQYN ?
Response: 1

Request: What does the record list as Target Concentration BLANK (phage screen NGS readout) for DPAHWVCEHAALNCDQN ?
Response: 0

Request: What does the record list as Target Concentration BLANK (phage screen NGS readout) for DPAVEDCVLAAHVCAWF ?
Response: 0

Request: What does the record list as Target Concentration BLANK (phage screen NGS readout) for DPAVVECYEAAYTCQYI ?
Response: 0

Request: What does the record list as Target Concentration BLANK (phage screen NGS readout) for DPAILECYEAAFECQYM ?
Response: 0

Request: What does the record list as Target Concentration BLANK (phage screen NGS readout) for DPAILQCYEAAFSCHYQ ?
Response: 0

Request: What does the record list as Target Concentration BLANK (phage screen NGS readout) for DPARHECILAAHICEWE ?
Response: 2

====

Target: RNF31 PUB domain (Homo sapiens)
Construct: MBP-TEV (N, cleaved yes); made in house; host or cells: E. coli BL21 (DE3) pLysS
Sequence (Q96EP0 1-179): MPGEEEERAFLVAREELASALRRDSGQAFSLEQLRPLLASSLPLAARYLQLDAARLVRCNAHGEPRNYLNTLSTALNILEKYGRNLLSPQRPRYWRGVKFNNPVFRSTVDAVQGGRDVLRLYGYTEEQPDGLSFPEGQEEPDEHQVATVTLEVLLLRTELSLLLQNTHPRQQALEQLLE
Test: Phage Library Screening with NGS, RNF31 PUB domain
Type: binding
Conditions: RNF31 PUB domain clusters C41-C45; target concentration 1000, second column
Phage library screen NGS readout, Target Concentration 1000 of 8 or higher: satisfied. Under 8: not satisfied.

sequence=DPAWWSCMYAAWTCDDT class_assignment=satisfied
sequence=DPAHTWCMYAAFDCFES class_assignment="not satisfied"
sequence=DPALEICWDAAIQCSYV class_assignment=satisfied
sequence=DPAAEDCHIAAMVCMTY class_assignment=satisfied
sequence=DPAYWHCLYAAASCDDI class_assignment="not satisfied"

Request: Does Phage library screen NGS readout, Target Concentration 1000 meet or surpass 8 for DPAYDYCLYAAYDCTQT ?
Response: satisfied

Request: Does Phage library screen NGS readout, Target Concentration 1000 meet or surpass 8 for DPATEACFDAAIECTYY ?
Response: not satisfied

====

Target: RNF31 PUB domain (Homo sapiens, UniProt Q96EP0)
Construct: MBP-TEV (N, cleaved yes); made in house; host or cells: E. coli BL21 (DE3) pLysS
Sequence (Q96EP0 1-179): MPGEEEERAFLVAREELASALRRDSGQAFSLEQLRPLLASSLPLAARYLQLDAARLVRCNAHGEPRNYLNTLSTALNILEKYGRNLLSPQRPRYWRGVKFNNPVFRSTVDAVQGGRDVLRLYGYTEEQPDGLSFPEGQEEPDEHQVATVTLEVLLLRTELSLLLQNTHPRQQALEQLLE
Assay: Phage Library Screening with NGS, RNF31 PUB domain
Format: binding
Details: clusters C41-C45; BLANK screen, column 2 of 5
Ends that are not written are not given here.
Measurement Name: Phage library screen NGS readout, BLANK
Hey, just send me the number, nothing else.

Please review the following examples before continuing.
sequence=DPAIRECMLAALVCSTY reported_value=0
sequence=DPAEDECDWAALYCDMQ reported_value=0
sequence=DPAEEYCLEAAILCTYD reported_value=0
sequence="DPALWDCLYAADACITS (not fully specified; cysteine pairing not given here)" reported_value=2
sequence=DPAQDWCMYAAYECDAH reported_value=0

Request: State its Phage library screen NGS readout, BLANK on RNF31 PUB domain (Homo sapiens, UniProt Q96EP0): DPARRECWDAAILCTYY
Response: 0

Request: State its Phage library screen NGS readout, BLANK on RNF31 PUB domain (Homo sapiens, UniProt Q96EP0): DPAMEWCWDAAVFCTYS
Response: 1

Request: State its Phage library screen NGS readout, BLANK on RNF31 PUB domain (Homo sapiens, UniProt Q96EP0): DPAFWACLYAAEECVVD
Response: 0
